Assay: Protein binding in CD1 mouse plasma at 1 mg/kg, po administered as bolus dose
Type: ADME, organism-based
Settings: read-out: PPB (converted)
outcome_measure: fraction unbound

[[record]]
molecule = "CCN1CC(C(=O)NC(C)CCc2ccc(Cl)c(Cl)c2)=C(O)C1=O (stereo in doubt; 7c)"
value = 0.023


* * *

Here, each record is paired with measured Ratio IC50 data.
Biological target: Endothelial lipase (Homo sapiens) (UniProt Q9Y5X9)
Sequence (Q9Y5X9 whole entry): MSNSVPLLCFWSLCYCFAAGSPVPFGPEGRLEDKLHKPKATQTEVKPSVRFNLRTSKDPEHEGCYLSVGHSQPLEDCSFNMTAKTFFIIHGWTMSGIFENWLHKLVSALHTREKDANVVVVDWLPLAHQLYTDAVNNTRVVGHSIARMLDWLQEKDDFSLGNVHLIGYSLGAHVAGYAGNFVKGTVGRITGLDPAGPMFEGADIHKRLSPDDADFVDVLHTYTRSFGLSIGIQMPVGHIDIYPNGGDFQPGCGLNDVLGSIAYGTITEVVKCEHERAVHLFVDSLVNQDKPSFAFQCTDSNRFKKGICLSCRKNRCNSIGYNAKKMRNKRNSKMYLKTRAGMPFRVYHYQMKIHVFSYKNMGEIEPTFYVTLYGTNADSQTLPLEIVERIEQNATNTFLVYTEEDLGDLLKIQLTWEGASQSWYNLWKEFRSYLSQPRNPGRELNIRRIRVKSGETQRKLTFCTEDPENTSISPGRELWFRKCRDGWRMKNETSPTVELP
Experiment: Ratio of IC50 for endothelial lipase in human HT1080 cells using HDL as substrate to IC50 for endothelial lipase in human HT1080 cells using PED-A1 containing DMPG vesicles as substrate
Type: cell-based
outcome_measure: Ratio IC50

[[record]]
compound = "CN1C(=O)C(O)=C(C(=O)NCCCc2ccc(Cl)c(Cl)c2)C1c1ccccc1Cl (stereo not drawn)"
outcome_measure = "Ratio IC50"
value = "60 to 100"

[[record]]
compound = "CS(=O)(=O)NC(=O)CCN1CC(C(=O)NCCCc2ccc(Cl)c(Cl)c2)=C(O)C1=O"
outcome_measure = "Ratio IC50"
value = "11 to 150"

[[record]]
compound = "O=C(NCCCc1ccc(Cl)c(Cl)c1)C1=C(O)C(=O)N(CCCN2CCCC2=O)C1"
outcome_measure = "Ratio IC50"
value = "11 to 150"

[[record]]
compound = "CCN1CC(C(=O)NCCCc2ccc(Cl)c(Cl)c2)=C(NCCc2ccncc2)C1=O"
outcome_measure = "Ratio IC50"
value = "> 50"

[[record]]
compound = "CCN1CC(C(=O)NCCCc2ccc(Cl)c(Cl)c2)=C(NC)C1=O"
outcome_measure = "Ratio IC50"
value = "> 50"

[[record]]
compound = "CN1C(=O)C(O)=C(C(=O)NCCCc2ccc(Cl)c(Cl)c2)C1CC(C)(C)C (stereo not drawn)"
outcome_measure = "Ratio IC50"
value = "60 to 100"

[[record]]
compound = "O=C(NCCCc1ccc(Cl)c(Cl)c1)C1=C(O)C(=O)N(CCOc2ccccc2)C1"
outcome_measure = "Ratio IC50"
value = "11 to 150"

[[record]]
compound = "CN1C(=O)C(O)=C(C(=O)NCCCc2ccc(Cl)c(Cl)c2)C1C1CC1 (stereo not drawn)"
outcome_measure = "Ratio IC50"
value = "60 to 100"

[[record]]
compound = "O=C(NCCCc1ccc(Cl)c(Cl)c1)C1=C(O)C(=O)N(Cc2ccccc2)C1"
outcome_measure = "Ratio IC50"
value = "11 to 150"

[[record]]
compound = "CCN1CC(C(=O)NCCCc2ccc(Cl)c(Cl)c2)=C(NCCOC(C)C)C1=O"
outcome_measure = "Ratio IC50"
value = "> 50"

[[record]]
compound = "CCN1CC(C(=O)NCCCc2ccc(Cl)c(Cl)c2)=C(NCCCN2CCCCC2)C1=O"
outcome_measure = "Ratio IC50"
value = "> 50"

[[record]]
compound = "CN1CC(C(=O)NCCCc2ccc(Cl)c(Cl)c2)=C(O)C1=O"
outcome_measure = "Ratio IC50"
value = "11 to 150"

[[record]]
compound = "CCN1CC(C(=O)NCCCc2ccc(Cl)c(Cl)c2)=C(O)C1=O"
outcome_measure = "Ratio IC50"
value = "11 to 150"


Each recorded value in this set is attributed to ChEMBL document CHEMBL4196117.
